target: Sodium/potassium-transporting ATPase; experiment: Ability to displace [3H]ouabain from Na+/K+ ATPase in dog kidney.; type: protein-complex assay, Canis lupus familiaris
endpoint: IC50 (nM)
Your answer should be a plain number; it is taken to be in nM.

API: value(readout=IC50, system=Sodium/potassium-transporting ATPase) for record C[C@]12CC[C@H](O)C[C@H]1CC[C@@H]1[C@@H]2CC[C@]2(C)[C@@](O)(c3ccoc3)CC[C@]12O
1500
